- Tgt: Histamine H1 receptor (Homo sapiens, UniProt P35367)
- Sequence (P35367 whole entry): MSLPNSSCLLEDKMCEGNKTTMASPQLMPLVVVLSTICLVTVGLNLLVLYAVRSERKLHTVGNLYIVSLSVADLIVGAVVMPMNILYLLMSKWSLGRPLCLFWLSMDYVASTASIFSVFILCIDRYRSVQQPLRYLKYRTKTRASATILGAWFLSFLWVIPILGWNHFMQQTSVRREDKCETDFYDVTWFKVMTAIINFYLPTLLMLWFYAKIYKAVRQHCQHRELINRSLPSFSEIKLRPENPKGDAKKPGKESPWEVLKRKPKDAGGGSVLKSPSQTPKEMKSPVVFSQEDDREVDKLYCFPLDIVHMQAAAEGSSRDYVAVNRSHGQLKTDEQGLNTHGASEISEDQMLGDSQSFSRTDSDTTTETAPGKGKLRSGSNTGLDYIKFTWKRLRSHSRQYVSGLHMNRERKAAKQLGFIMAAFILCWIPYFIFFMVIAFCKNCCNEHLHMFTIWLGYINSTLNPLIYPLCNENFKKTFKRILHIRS
pKi: −log10 of the molar value.
Attribute Measured: pKi

| Molecule | Result |
| --- | --- |
| CC(C)C(=O)N(c1ccccc1)C1CC(C)N(C(=O)c2ccccc2)c2ccccc21 (stereo not drawn) [K117] | < 6.00 |
| CC1CC(N(C(=O)C2CC2)c2ccccc2)c2ccccc2N1C(=O)c1ccccc1 (stereo not drawn) [K604] | < 6.00 |
| CCC(=O)N1c2ccccc2C(N(C(C)=O)c2ccccc2)CC1C (stereo not drawn) [K376] | < 6.00 |

* * *

Here's a batch of compounds along with measured Ki for Leukotriene B4 receptor 1 (Homo sapiens) (UniProt Q15722).
Attribute Measured: Ki

| Compound | Attribute Measured | Result |
| --- | --- | --- |
| CC1CC(N(C(=O)C2CC2)c2ccccc2)c2ccccc2N1C(=O)c1ccccc1 (stereo not drawn) [K604] | Ki | > 1000 nM |
| CCC(=O)N1c2ccccc2C(N(C(C)=O)c2ccccc2)CC1C (stereo not drawn) [K376] | Ki | > 1000 nM |
| CC(C)C(=O)N(c1ccccc1)C1CC(C)N(C(=O)c2ccccc2)c2ccccc21 (stereo not drawn) [K117] | Ki | > 1000 nM |

Value source: BindingDB's records for doi:10.1124/jpet.104.081539
